Values were extracted from PubChem BioAssay.

Record form. Attribute: inhibition. Fill in for each entry.
Experiment Summary: inhibitors of TNFa-induced NFkB p65 translocation, primary screen, imaging, HUVEC, MLSMR starter and 10KST1 sets (AID 438);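 note: compound added about 3h40 before a 20 min TNFalpha stimulation; signal is the nuclear over cytoplasmic p65 intensity ratio per well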
Condition: HUVEC TNFa-induced p65 nuclear translocation; at 2 µM, stronger effect = higher value, 0% TNFa-plus-vehicle, 100% no-TNFa wells
Give bare numbers, in %.

Below, 4 molecules whose answers are already recorded.
[[record]]
molecule = "CCn1ncc(C2=NOC(C(=O)NCc3ccc(Cl)cc3)C2)c1C (configuration not stated)"
quantity_name = "inhibition"
reported_measurement = 13.4

[[record]]
molecule = "Cc1ccc(-n2ncc3c(Nc4c(C)n(C)n(-c5ccccc5)c4=O)ncnc32)c(C)c1"
quantity_name = "inhibition"
reported_measurement = 9.3

[[record]]
molecule = "COc1cc(NS(=O)(=O)c2cccc3nsnc23)c(C(=O)O)cc1OC"
quantity_name = "inhibition"
reported_measurement = -6

[[record]]
molecule = "Cc1cc(C)cc(NS(=O)(=O)c2ccc3[nH]cc(C(=O)NCc4ccco4)c(=O)c3c2)c1"
quantity_name = "inhibition"
reported_measurement = 1.5


# batch: return inhibition for each of the 6 molecules below
1. CC(NC(=O)c1ccccc1NC(=O)c1ccco1)C(=O)O (configuration not stated)
2. Cc1cccn2c(=O)c3cc(C#N)c(=O)n(CCCN4CCOCC4)c3nc12
3. COc1ccc(N2CCN(c3oc(COc4ccccc4)nc3C#N)CC2)cc1
4. C=C(C)COc1ccc(-c2nc(N)ncc2Oc2ccccc2OCC)c(O)c1
5. CC(Oc1ccccc1)C(=O)N1CCCc2ccccc21 (configuration not stated)
6. CCN(CC)C(=O)CN(c1cc(Cl)ccc1OC)S(C)(=O)=O

0.9
1
9.4
-11
9.1
-2.4

Dear colleague, could you please provide inhibition for the molecules listed below?
1. Cc1noc(C)c1COc1cccc(C(=O)Oc2ccc3c(c2)OCO3)c1
2. CC(C)Cn1c(=O)c(C(=O)NCc2ccccn2)c(O)c2ccccc21
3. CCOC(=O)N1CCC(O)(c2cc(C)c(C)cc2C)CC1

-9.6
-20.7
-1.1

Hello, I would appreciate it if you could give inhibition for each entry below.
1. CCn1cc(C(=O)N2CCCC2)c(=O)c2cc(S(=O)(=O)N3CCOCC3)ccc21
2. O=C(C1CCC1)N1CCc2cc(S(=O)(=O)Nc3ccc4c(c3)OCO4)ccc21
3. Cc1ccc(CNC(=O)CCCn2c(=O)c3ccccc3n(CC(=O)NCc3ccco3)c2=O)cc1

1. -1
2. 10.1
3. -11.1
